STUDY TARGET: T1, Cyno His-GDF15: HIS-tagged cyno GDF15 (cynomolgus, UniProt G7PWZ3 197-308, limits assumed)
T1 construct: not shown: His tag
T1 sequence (looked up): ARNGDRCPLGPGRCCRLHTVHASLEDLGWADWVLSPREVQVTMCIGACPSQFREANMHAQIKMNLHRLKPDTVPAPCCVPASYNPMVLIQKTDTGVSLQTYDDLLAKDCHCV
EXPERIMENT NOTES: Biacore SPR, IgG captured via anti-human Fc, GDF15 in flow
OBSERVABLE: pKd
Please note pKd is a logarithmic value: minus log10 of concentration in mol/L. Answer with that number alone.

Task: I am curious: what pKd value has been reported for ABGDF15-C (antibody, human IgG1, lambda, V domains shown, captured through anti-human Fc in the Biacore assay) VH: QVQLVQSGAEVKKPGSSVKVSCKASGGTFRSYAVSWVRQAPGQGLEWMGGIIPIFGTANYAQKFQGRVTITADESTSTAYMELSSLRSEDTAVYYCARGPIIMGYQFGLFDHWGQGTLVTVSS VL: SYELTQPPSVSVSPGQTASITCSGDNIGSHIVSWYQQKPGQSPVLVIYDKSNRPSGIPERFSGSNSGNTATLTISGTQAMDEADYYCQTWDSIGSVVFGGGTKLTVLG ?
Output: 10.19
